# MEASUREMENT TARGET: EGFR^Del19/T790M/C797S (Homo sapiens, UniProt P00533, C797S/DEL746-750/T790M)
# Sequence (P00533 with tags, fused parts or gaps DEL746-750/T790M/C797S): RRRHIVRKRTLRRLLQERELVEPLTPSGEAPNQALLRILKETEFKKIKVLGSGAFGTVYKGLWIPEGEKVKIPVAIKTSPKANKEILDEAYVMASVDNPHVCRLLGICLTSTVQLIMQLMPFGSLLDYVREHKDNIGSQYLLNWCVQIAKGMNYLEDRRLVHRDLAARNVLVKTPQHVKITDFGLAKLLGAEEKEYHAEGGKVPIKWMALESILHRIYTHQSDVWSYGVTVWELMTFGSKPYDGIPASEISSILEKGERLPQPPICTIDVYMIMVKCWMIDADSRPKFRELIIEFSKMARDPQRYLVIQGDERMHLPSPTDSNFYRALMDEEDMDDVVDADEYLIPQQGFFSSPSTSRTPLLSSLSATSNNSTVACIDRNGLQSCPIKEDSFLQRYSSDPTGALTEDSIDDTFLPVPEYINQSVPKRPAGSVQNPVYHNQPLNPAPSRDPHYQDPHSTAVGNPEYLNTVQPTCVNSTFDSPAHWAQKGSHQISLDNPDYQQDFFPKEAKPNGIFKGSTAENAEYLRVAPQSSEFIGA
# ASSAY: EGFR inhibitory activity assay (TK-substrate-biotin/ATP, 665/615 ratio)
# Format: biochemical
# EXPERIMENTAL PARAMETERS: kinase inhibition
MEASURED PROPERTY: IC50

Here's what some known entries look like.
[[record]]
compound = "COc1cc(N2CCC(N3CCN(CCCCC#Cc4cccc5c4CN(C4CCC(=O)NC4=O)C5=O)CC3)CC2)ccc1Nc1ncc(Cl)c(Nc2ccccc2P(C)(C)=O)n1 (stereo not drawn)"
result = "1 to 100 nM"

[[record]]
compound = "COc1cc(N2CCC3(CCN(CCCCC#Cc4cccc5c4CN(C4CCC(=O)NC4=O)C5=O)CC3)CC2)c(C)cc1Nc1ncc(Br)c(Nc2ccc3nccnc3c2P(C)(C)=O)n1 (stereo not drawn)"
result = "1 to 100 nM"

[[record]]
compound = "COc1cc(N2CCC(N3CCN(C(=O)CCCCCCc4cccc5c4C(=O)N(C4CCC(=O)NC4=O)C5=O)CC3)CC2)ccc1Nc1ncc(Cl)c(Nc2ccccc2P(C)(C)=O)n1 (stereo not drawn)"
result = "101 to 200 nM"

[[record]]
compound = "COc1cc(N2CCC(N3CCN(CCCCCCCC#Cc4cccc5c4CN(C4CCC(=O)NC4=O)C5=O)CC3)CC2)ccc1Nc1ncc(Cl)c(Nc2ccccc2P(C)(C)=O)n1 (stereo not drawn)"
result = "1 to 100 nM"


Look at each compound and report its IC50.
1. COc1cc(N2CCC(N3CCN(CCCCC#Cc4ccc5c(c4)CN(C4CCC(=O)NC4=O)C5=O)CC3)CC2)ccc1Nc1ncc(Cl)c(Nc2ccccc2P(C)(C)=O)n1 (stereo not drawn)
2. COc1cc(N2CCC(N3CCN(CC(=O)Nc4cccc5c4CN(C4CCC(=O)NC4=O)C5=O)CC3)CC2)ccc1Nc1ncc(Cl)c(Nc2ccccc2P(C)(C)=O)n1 (stereo not drawn)
3. COc1cc(N2CCC(N3CCN(CCCCCC#Cc4cc(F)cc5c4CN(C4CCC(=O)NC4=O)C5=O)CC3)CC2)ccc1Nc1ncc(Cl)c(Nc2ccccc2P(C)(C)=O)n1 (stereo not drawn)

Result block:
1: 1 to 100 nM; 2: 1 to 100 nM; 3: 1 to 100 nM

Look at each compound and report its IC50.
1. COc1cc(N2CCC(N3CCN(CCCCCCC#Cc4cccc5c4CN(C4CCC(=O)NC4=O)C5=O)CC3)CC2)ccc1Nc1ncc(Cl)c(Nc2ccccc2P(C)(C)=O)n1 (stereo not drawn)
2. COc1cc(N2CCC(N3CCN(CCOCCOCCOCCNC(=O)COc4cccc5c4C(=O)N(C4CCC(=O)NC4=O)C5=O)CC3)CC2)ccc1Nc1ncc(Cl)c(Nc2ccccc2P(C)(C)=O)n1 (stereo not drawn)
3. COc1cc(N2CCC(N3CCN(CCCCCCCCCOc4cccc5c4C(=O)N(C4CCC(=O)NC4=O)C5=O)CC3)CC2)ccc1Nc1ncc(Cl)c(Nc2ccccc2P(C)(C)=O)n1 (stereo not drawn)
4. COc1cc(N2CCC(N3CCN(C(=O)CCCCCCOc4cccc5c4C(=O)N(C4CCC(=O)NC4=O)C5=O)CC3)CC2)ccc1Nc1ncc(Cl)c(Nc2ccccc2P(C)(C)=O)n1 (stereo not drawn)
5. COc1cc(N2CCC(N3CCN(CCCCCCCOc4cccc5c4C(=O)N(C4CCC(=O)NC4=O)C5=O)CC3)CC2)ccc1Nc1ncc(Cl)c(Nc2ccccc2P(C)(C)=O)n1 (stereo not drawn)

Result block:
1: 1 to 100 nM; 2: 1 to 100 nM; 3: 1 to 100 nM; 4: 101 to 200 nM; 5: 1 to 100 nM
